Data provenance: the RNAGym collection of RNA variant scans (doi:10.7554/elife.90254)

B1: LINE1-full (parent)
chain: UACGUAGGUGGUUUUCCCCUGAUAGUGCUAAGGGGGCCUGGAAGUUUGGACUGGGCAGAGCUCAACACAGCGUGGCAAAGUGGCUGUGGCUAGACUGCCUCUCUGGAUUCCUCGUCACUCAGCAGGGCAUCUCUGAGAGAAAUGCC

Variants of: B1
Assay: self-cleavage, relative activity (ratio to wild type); higher = more cleavage; in vitro, sequencing; the parent is a self-cleaving ribozyme
Note that class boundaries on self-cleavage are bottom: < 0.3; middle: ≥ 0.3 and < 1; top: ≥ 1

| Mutation annotation | Category |
| --- | --- |
| A2G A141G | middle |
| A117U G135A | top |
| U46C A67U | bottom |
| G8A A77U | top |
| U112G A142G | top |
| U23C C51U | middle |
| C37G U91C | middle |
| U23A U39C | middle |
| U81A C120A | top |
| U87A U134C | bottom |
| G11A A59G | bottom |
| A117G C145U | top |
| A50G A67C | bottom |
| A67G U143G | middle |
| U5C A6G | middle |
| A92C A141G | bottom |
| A22G U26A | top |
| A6U G41A | top |
| U100G C116U | top |
| A50G U87A | bottom |
| C3G A141G | middle |
| G33U U104C | top |
| A64G C84A | bottom |
| U13G U100A | middle |
| G7C U52A | top |
| G86A G126U | bottom |
| A59G A117C | bottom |
| A42G U47A | top |
| A30G U104A | middle |
| C19G U62A | bottom |
| C18U U73A | top |
| U13C U134G | top |
